Hey, just so you know, these numbers are from patent US7446092B2.

- target.desc: GSK-3β (Oryctolagus cuniculus, UniProt A0A5F9DUX8)
- Sequence (A0A5F9DUX8 1-420): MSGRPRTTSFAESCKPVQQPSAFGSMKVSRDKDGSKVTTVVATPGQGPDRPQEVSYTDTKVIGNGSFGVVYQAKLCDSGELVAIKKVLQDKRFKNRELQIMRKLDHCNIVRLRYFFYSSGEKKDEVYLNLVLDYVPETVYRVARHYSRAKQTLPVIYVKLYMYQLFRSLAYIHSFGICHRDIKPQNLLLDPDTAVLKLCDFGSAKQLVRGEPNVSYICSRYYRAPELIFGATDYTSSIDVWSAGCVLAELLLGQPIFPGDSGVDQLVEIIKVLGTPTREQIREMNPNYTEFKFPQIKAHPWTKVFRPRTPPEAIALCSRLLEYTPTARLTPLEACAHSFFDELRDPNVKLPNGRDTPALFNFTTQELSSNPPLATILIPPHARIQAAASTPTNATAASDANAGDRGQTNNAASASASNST
- assay.overview: In vitro GSK-3 inhibition assay (phosphorylation of PGS-1 peptide substrate)
- Type: biochemical, rabbit
- measurement.context: in vitro; cpL803-mts tested at 0-300 μM
Ends that are not written are not given here. * marks the point of attachment. Myristoyl = CCCCCCCCCCCCCC(=O)*
measurement.name: GSK-3 inhibition (in words)

KEEPPAPPQSP [Peptide 10] | inactive inhibitors
N-Myristol-GKEAPPAPPQSP (Myristoyl-GKEAPPAPPQSP) [LS803-mts, control conjugate, phosphorylated serine replaced with serine, reference compound] | do not inhibit
N-Myristol-GKEAPPAPPQSEP (Myristoyl-GKEAPPAPPQSEP) [LE803-mts, control conjugate, phosphorylated serine replaced with glutamic acid, reference compound] | do not inhibit
KEEPPAPPQEP [Peptide 11] | inactive inhibitors
